Test: viability loss in pontine glioma line – cell-based, SU-DIPG-XIII, MIPE4.0, CellTiter-Glo, qHTS, dose response (AID 1347061);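 note: cells exposed to compound for 48 hours before readout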
Details: CellTiter-Glo ATP luminescence
Inconclusive results are not listed. Activity calls are given as the source filed them. No cut-off is given here; in the data, nearly all actives have AC50 up to about 37 µM.
Pick from active, inactive when you respond.

Req: Please state the recorded outcome for this compound: CCc1cccc(CC)c1NC(=O)N1Cc2[nH]nc(NC(=O)c3ccc(N4CCN(C)CC4)cc3)c2C1
Resp: active

Req: What was the test verdict on Nc1ccccc1NC(=O)c1ccc(CNC(=O)OCc2cccnc2)cc1 ?
Resp: active

Req: Tell me the assay call for CCC[C@@H](C=O)NC(=O)[C@H](CC(C)C)NC(=O)[C@H](CC(C)C)NC(=O)OCc1ccccc1 please.
Resp: active

Req: Test call, this compound: O=C(c1ccc(C(=O)N2CCC(N3CCCC3)CC2)c(Nc2ccccc2)c1)N1CCC(N2CCCC2)CC1
Resp: inactive

Req: # fetch the recorded call for N#CC1(c2ccc(NC(=O)c3cccnc3NCc3ccncc3)cc2)CCCC1 here
Resp: inactive

Req: Dear all, I need the recorded test outcome for CC1=C(C(=O)Nc2cc3cn[nH]c3cc2F)C(c2ccc(Cl)cc2F)N=C(c2ccnc(Cl)c2)N1 (stereo not drawn) , thank you.
Resp: inactive

Req: Kindly provide the recorded test outcome for the following compound: CCNC(=O)c1noc(-c2cc(C(C)C)c(O)cc2O)c1-c1ccc(CN2CCOCC2)cc1
Resp: active

Req: Could you check what this test reported for CC(C)OC(=O)C1=CN(C(=O)c2ccc(F)c(F)c2)CC(C)(C)c2c1[nH]c1ccccc21 ?
Resp: inactive

Req: I'd appreciate the recorded outcome for Nc1nc2[nH]cc(CCc3ccc(C(=O)N[C@@H](CCC(=O)O)C(=O)O)cc3)c2c(=O)[nH]1 from this test.
Resp: inactive

Req: Field: outcome | Entry: CCOc1cc2ncc(C#N)c(Nc3ccc(F)c(Cl)c3)c2cc1NC(=O)/C=C/CN(C)C
Resp: inactive

Req: Record lookup: outcome of this test for O=C1CCC[C@@H]2[C@H]3CCC[N+]4([O-])CCC[C@@H](CN12)[C@@H]34 (stereo partly drawn) ?
Resp: inactive

Req: GET /call?item= COc1ccc(-n2nc(C(N)=O)c3c2C(=O)N(c2ccc(N4CCCCC4=O)cc2)CC3)cc1 returns the recorded outcome of this test.
Resp: inactive

Req: Which outcome did this test record for the compound Clc1ccc(C2(c3ccc(-c4cn[nH]c4)cc3)CCNCC2)cc1 ?
Resp: inactive

====

Test: drug combination growth inhibition, ovarian cancer – cell-based, oncology-focused library, rucaparib conditional, profiling panel (AID 1508598)
Details: patient-derived ovarian cancer cells, CellTiter-Glo viability, 144 h; at 5 µM; OCI-P5x cells; without rucaparib; active compounds read low
Kindly supply the reported viability values for the records listed here.
# value in %; strip the unit string

Reported viability of Cc1ccc(-c2csc(NC(=O)c3ccccc3)n2)c(C)c1 : 100

Looking up CN1CCN(c2cccc(Nc3nc4c(-c5ccc(S(C)(=O)=O)cc5)cccn4n3)c2)CC1 , I see its viability listed as 77.6

Input COc1ccc(-n2c(SCCCN3C(=O)c4cccc5cccc(c45)C3=O)nnc2-c2ccncc2)cc1 . Output viability: 86.5

For record COc1cc2c(Oc3ccc4[nH]c(C)cc4c3F)ncnc2cc1OCCCN1CCCC1 the listed viability is 82.8

// recorded viability for Cc1nnc(C(C)C)n1C1CC2CCC(C1)N2CC[C@H](NC(=O)C1CCC(F)(F)CC1)c1ccccc1 (some centres not stated) : 95.4

So, CNC(=O)c1ccc(C)c(-n2c(C)cc(OCc3ccc(F)cc3F)c(Br)c2=O)c1 ? Its viability was 105

# viability of CC(C)CC(=O)Nc1n[nH]c2c1CN(C(=O)C1CCN(C)CC1)C2(C)C = 6.68

Kindly note the recorded viability for Cc1ccc2nc(NC(=O)CSc3nc4c(c(=O)n3-c3ccccc3)SCC4)sc2c1 , which is 95.4

Entry COCCOc1nc(-c2ccc(Cl)c(Cl)c2)n(-c2ccc(NC(=O)CCl)cc2)n1 ; viability = 6.27

The recorded viability for entry Nc1ccn([C@@H]2O[C@H](CO)[C@@H](O)C2(F)F)c(=O)n1 equals 17.7

get_value(item= C[C@@H](Oc1cc(-c2cnn(C3CCNCC3)c2)cnc1N)c1c(Cl)ccc(F)c1Cl , readout=viability) returns 13.1

Briefly, viability measured for COc1ccc(COc2cc3oc(=O)c4cc(C(C)O)ccc4c3cc2OC)cc1 (configuration not stated) : 90.6

For reference, reported viability for Nc1nc(Nc2ccc(S(N)(=O)=O)cc2)nn1C(=O)c1c(F)cccc1F stands at 13.1

Per the records, this compound ( O=C(c1cc(Cc2n[nH]c(=O)c3ccccc23)ccc1F)N1CCN(C(=O)C2CC2)CC1 ) has viability equal to 66.2

Per the record, CCOc1cc2ncc(C#N)c(Nc3ccc(F)c(Cl)c3)c2cc1NC(=O)/C=C/CN(C)C has viability of 1.58

Summary for this compound, COc1cc(OC)c(/C=C/S(=O)(=O)Cc2ccc(OC)c(NCC(=O)O)c2)c(OC)c1 : viability is 12.1

Value of measured viability for the entry Cc1cnc(-c2cnc(NCCNc3ccc(C#N)cn3)nc2-c2ccc(Cl)cc2Cl)[nH]1 : 78

Record COc1nc(C)cnc1NS(=O)(=O)c1cccnc1-c1ccc(-c2nnco2)cc1 . Reported viability: 106

Sample O=C(O)c1ccc(O)c2ncccc12 ; viability observed: 111

GET /value?item= Nc1ccc(C(=O)Nc2cccc(-c3nc(N4CCOCC4)c4oc5ncccc5c4n3)c2)cn1 &field=viability returns 78.9

Per the records, this compound ( CCNC(=O)c1noc(-c2cc(C(C)C)c(O)cc2O)c1-c1ccc(CN2CCOCC2)cc1 ) has viability equal to 2.59

Documented viability of CCC[C@H](Nc1nc(-c2ccc(NC(=O)NCC)c(OC)c2)ncc1C)c1cccnc1 : 10.1

The reported viability of the compound COc1cc2nccc(Oc3ccc(NC(=O)Nc4cc(C)on4)c(Cl)c3)c2cc1OC was 82.8

viability recorded for this compound, CN1CCN(c2ccc(OC(F)(F)F)c(Nc3ncc4c(n3)-c3c(c(C(N)=O)nn3CCO)CC4)c2)CC1 , is 14.5

The reported value for CC(C)C[C@H](NC(=O)CNC(=O)c1cc(Cl)ccc1Cl)B(O)O in terms of viability is 0.837

viability recorded for this compound, COc1ccc(-c2ccc3c(N4CCOCC4)nc(N4C[C@@H](C)O[C@@H](C)C4)nc3n2)cc1CO , is 99.4

The reported value for CCOc1cc(N2CCC(O)CC2)ccc1Nc1ncc2c(n1)N(C)c1ccccc1C(=O)N2C in terms of viability is 75.3

====

Test: drug combination growth inhibition, ovarian cancer – cell-based, oncology-focused library, rucaparib conditional, profiling panel (AID 1508598)
Details: patient-derived ovarian cancer cells, CellTiter-Glo viability, 144 h; at 0.000305 µM; OCI-C5x cells; with rucaparib 10 µM; 100% = cells with rucaparib alone
Activity calls are given as the source filed them.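 How the source made its calls: active means normalized viability below 100% at a tested concentration; inactive means the rest.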
Respond using exactly one of the listed classes: active, inactive

Req: Which outcome did this test record for the molecule O=C(NCCCNc1nc(Nc2cccc(NC(=O)N3CCCC3)c2)ncc1I)c1cccs1 ?
Resp: inactive

Req: What is the recorded call for this molecule in the test? C=CCn1c(=O)c2cnc(Nc3ccc(N4CCN(C)CC4)cc3)nc2n1-c1cccc(C(C)(C)O)n1
Resp: inactive

Req: Which result was noted for this molecule in the test: Cc1cc2c(F)c(Oc3ncnn4cc(OC[C@@H](C)O)c(C)c34)ccc2[nH]1
Resp: inactive

Req: Outcome? N#Cc1c(NC(=O)c2cccc3ccccc23)sc2c1CCCC2
Resp: inactive

Req: Please share the test call associated with Cc1ccc(-c2csc(NC(=O)c3ccccc3)n2)c(C)c1 .
Resp: inactive

Req: GET /call?item= COc1cc2nccc(Oc3ccc(NC(=O)Nc4cc(C)on4)c(Cl)c3)c2cc1OC returns the recorded outcome of this test.
Resp: inactive

Req: // return assay outcome for Cc1ccc(C(=O)N(CCCN)[C@@H](c2oc3cc(Cl)ccc3c(=O)c2Cc2ccccc2)C(C)C)cc1
Resp: active

Req: I'd appreciate the recorded outcome for Cc1c(NC(=O)OC[C@@H]2COCCN2)cn2ncnc(Nc3ccc4c(cnn4Cc4cccc(F)c4)c3)c12 from this test.
Resp: inactive

Req: What is the recorded call for this molecule in the test? CNc1nc(-c2ccc3c(N)n[nH]c3c2)cc(N2C[C@@H](C(=O)NC3CCCCC3)CC[C@H]2C)n1
Resp: inactive

Req: Tell me the assay call for O=C(/C=C/c1cccc(S(=O)(=O)Nc2ccccc2)c1)NO please.
Resp: inactive

Req: Outcome logged for CN1CCC(CNc2ccc3ncc(-c4cccc(OC(F)(F)F)c4)n3n2)CC1 in this assay:
Resp: inactive

Req: Test call, this molecule: CCC[C@H](NC(=O)/C(C#N)=C/c1cccc(Br)n1)c1ccccc1
Resp: inactive

Req: Record lookup: outcome of this test for CCC[C@H](Nc1nc(-c2ccc(NC(=O)NCC)c(OC)c2)ncc1C)c1cccnc1 ?
Resp: active

Data origin: PubChem BioAssay
